Every entry's value here was drawn from ChEMBL document CHEMBL3988442.

study-target: Sialic acid-binding Ig-like lectin 9 (Homo sapiens) (UniProt Q9Y336)
Sequence (Q9Y336 whole entry): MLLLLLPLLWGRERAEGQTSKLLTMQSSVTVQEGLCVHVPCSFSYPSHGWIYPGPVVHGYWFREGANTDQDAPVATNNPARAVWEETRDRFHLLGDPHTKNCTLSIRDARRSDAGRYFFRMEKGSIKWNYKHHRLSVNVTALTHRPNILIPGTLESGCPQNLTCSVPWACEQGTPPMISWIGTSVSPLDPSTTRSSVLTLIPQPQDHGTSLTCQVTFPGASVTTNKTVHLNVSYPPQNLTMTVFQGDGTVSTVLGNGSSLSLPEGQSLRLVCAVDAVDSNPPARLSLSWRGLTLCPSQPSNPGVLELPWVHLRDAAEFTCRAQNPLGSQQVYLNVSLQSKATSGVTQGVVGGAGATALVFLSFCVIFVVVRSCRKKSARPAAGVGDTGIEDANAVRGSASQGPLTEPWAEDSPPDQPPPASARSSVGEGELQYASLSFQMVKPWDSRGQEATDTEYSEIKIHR
experiment-summary: Hs-Siglec9 ALPHAscreen SOP 20170721
Parameters: scale not given: direction of the effect not stated beside the values
condition-set: 10 µM
observed-property: Percent Effect (%)
Numeric answer only, unit % assumed.

{"columns": ["compound", "value-units", "Percent Effect"],
 "data": [
  ["CC(C)Nc1nc2c(cc1C(=O)NCC1CC1)CCNCC2", "%", 7.51]
]}

stdin: Report Percent Effect for O=C(c1cc2c(s1)CCC2)N1CCCCC1Cn1cccn1 (stereo unspecified) tested on Sialic acid-binding Ig-like lectin 9 (Homo sapiens) (UniProt Q9Y336).
stdout: 3.35

stdin: Report Percent Effect for Cc1cc(C(=O)N2CCCCC2C)ccc1NCC(=O)N1CCOCC1 (stereo unspecified) tested on Sialic acid-binding Ig-like lectin 9 (Homo sapiens) (UniProt Q9Y336).
stdout: -0.936

stdin: Report Percent Effect for Cc1nc(C(=O)N2CCC(Nc3cccnn3)CC2)cs1 tested on Sialic acid-binding Ig-like lectin 9 (Homo sapiens) (UniProt Q9Y336).
stdout: -10.3

stdin: Report Percent Effect for CCCc1n[nH]c(C2CN(C(=O)c3ccco3)CCO2)n1 (stereo unspecified) tested on Sialic acid-binding Ig-like lectin 9 (Homo sapiens) (UniProt Q9Y336).
stdout: -8.28

stdin: Report Percent Effect for COc1cc(N2CC[C@H](O)[C@@H]2Cc2cnn(C)c2)ncn1 tested on Sialic acid-binding Ig-like lectin 9 (Homo sapiens) (UniProt Q9Y336).
stdout: -5.15

###

study-target: Arginase-2, mitochondrial (Homo sapiens) (UniProt P78540)
Sequence (P78540 whole entry): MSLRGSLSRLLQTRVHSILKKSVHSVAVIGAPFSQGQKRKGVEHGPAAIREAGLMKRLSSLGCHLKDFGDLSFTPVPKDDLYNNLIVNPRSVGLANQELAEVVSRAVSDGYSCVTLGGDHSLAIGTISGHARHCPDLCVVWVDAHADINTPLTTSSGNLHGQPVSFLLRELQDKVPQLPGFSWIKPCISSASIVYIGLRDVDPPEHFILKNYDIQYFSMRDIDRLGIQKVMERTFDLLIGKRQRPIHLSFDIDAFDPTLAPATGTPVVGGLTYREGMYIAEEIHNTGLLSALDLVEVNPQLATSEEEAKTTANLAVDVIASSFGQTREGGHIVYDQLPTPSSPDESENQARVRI
experiment-summary: in vitro enzyme assay to detect the production of urea directly proportional to the activity of Arginase II; note: in the data most compounds retested in dose-response had high values
Assay type: functional
Set-up: scale not given: direction of the effect not stated beside the values
condition-set: 33.3 µM
Here, each record is paired with measured Percent Effect data.
Numeric answer only, unit % assumed.

Worked examples follow.
{"columns": ["compound", "Percent Effect [%]"],
 "data": [
  ["CNC(=O)Cc1ccc(NC(=O)NC(C)C(C)C)cc1 (stereo not given)", 0],
  ["COCC(=O)NCc1cc(=O)n2c(n1)CN(CC1CCOC1)CCC2 (stereo not given)", -2.23]
]}

stdin: I am curious: what Percent Effect value has been reported for CCc1nc(CCNC(=O)Nc2cc(C(N)=O)sc2C)cs1 ?
stdout: -1.56

###

System: Trypanosoma cruzi
experiment-summary: Trypanosoma cruzi phosphomannomutase and mannose-1-phosphate guanylyltransferase assay
Assay type: functional
Set-up: scale not given: direction of the effect not stated beside the values
condition-set: 10 µM
Here, each record is paired with measured Percent Effect data.
Numeric answer only, unit % assumed.

Worked examples follow.
{"columns": ["compound", "value-units", "Percent Effect"],
 "data": [
  ["Cc1ccc(N2CCCN(C(=O)C(C(C)C)n3cncn3)CC2)nn1 (stereo not given)", "%", 3.62],
  ["COCCCn1c(CN2CCCC(O)C2)cnc1S(=O)(=O)C1CCCC1 (stereo not given)", "%", 4.62],
  ["COc1c(C(=O)NCc2cccnc2)nnn1Cc1ccc(C)cc1", "%", -4.13]
]}

stdin: I am curious: what Percent Effect value has been reported for COc1ccc(CN2CCn3cc(CN4CCN(C)CC4)nc3C2)cc1 ?
stdout: -2.83

stdin: I am curious: what Percent Effect value has been reported for Cc1noc(-c2ccc(N3CCCC(C(=O)N4CCSCC4)C3)nc2)n1 (stereo not given) ?
stdout: -3.92

stdin: I am curious: what Percent Effect value has been reported for CC(=O)N(Cc1noc(C)n1)C1CCN(Cc2ccccc2C#N)C1 (stereo not given) ?
stdout: 1.74

stdin: I am curious: what Percent Effect value has been reported for Cc1nn(C)c(C)c1NC(=O)CN1CCCC1c1noc(C2CC2)n1 (stereo not given) ?
stdout: -0.196

stdin: I am curious: what Percent Effect value has been reported for CCCNC(=O)CNC(=O)CCc1ccccc1Br ?
stdout: 1.85

stdin: I am curious: what Percent Effect value has been reported for CC1c2ncc(CN3CCN(C)CC3)n2CCN1Cc1cccnc1 (stereo not given) ?
stdout: 5.41
